test system: LXRb:RXRa (NR concentration 270 nM, RXRa partner concentration 90 nM); experiment: PBM binding z-score (relative to random genomic background probes); higher = stronger binding; sequences stand for … in GC…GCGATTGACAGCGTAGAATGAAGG
Decision: PBM binding z-score >= 4 yields condition met, all other cases yield condition not met.

Exercise: // inclusive: PBM binding z-score at least 4? input: GCAGACAGGTGAAATGCAGGTAACTCAGGGTGGC
Solution: condition not met

Exercise: // inclusive: PBM binding z-score at least 4? input: CAAACTAGGTCACAGGTCAAAGTCGAGCCAACCA
Solution: condition met

Exercise: // inclusive: PBM binding z-score at least 4? input: TCTTGTAGATCAGCAGGTTAAGATAGCTGGCCAA
Solution: condition not met

* * *

system: VDR homodimer (NR concentration 270 nM); assay: PBM binding z-score (relative to random genomic background probes); higher = stronger binding; sequences stand for … in GC…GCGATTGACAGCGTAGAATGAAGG
Decision: PBM binding z-score >= 1 yields Y, all other cases yield N.

Solved cases (3 shown):
biopolymer-sequence | assigned-category
GATACAGGGTCAAGGCCAGGGTACGCGTATTGAT | Y
CGAACGAGTGCATGAGTTGATAGCAAATGCCGAT | Y
CCGACAGGGGCAAGGTTACCATAACGCACAGCCA | N

Exercise: // inclusive: PBM binding z-score at least 1? input: GGAACGATGGCAAGTTGATAGCAGAGTTTGATGG
Solution: N

Exercise: // inclusive: PBM binding z-score at least 1? input: TTACCCAGGTGAAGGTCGTTGATCCCTCTGTAGA
Solution: Y

* * *

system: THRa homodimer (NR concentration 90 nM); assay: PBM binding z-score (relative to random genomic background probes); higher = stronger binding; sequences stand for … in GC…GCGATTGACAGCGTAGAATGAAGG
Listed here: items and their measured PBM binding z-score.
The reply should be a number, written without any unit.

Field: example entries. Status: answers known.
biopolymer-sequence | target-desc | quantity | readout-value
AGAATGAGGTTTAGATCAGGGAAACAGAATACAT | THRa homodimer (NR concentration 90 nM) | PBM binding z-score | -0.242
GCAGACAGGTGAATCGCAGGTAACTCAGGGTGGC | THRa homodimer (NR concentration 90 nM) | PBM binding z-score | -0.285
TCGAGGAGGTTAGGGGCATTCAGAATGGCGTCGA | THRa homodimer (NR concentration 90 nM) | PBM binding z-score | 0.547
TCTAGTAGGCCAGAGGGTCACTCAAGAGGTACGG | THRa homodimer (NR concentration 90 nM) | PBM binding z-score | 0.0135
GCTGCTAGGACAACTGATGGTCAGCTAAAGCTCG | THRa homodimer (NR concentration 90 nM) | PBM binding z-score | -0.447

# context switch: different sequence, same PBM binding z-score
Exercise: Query the reported PBM binding z-score for THRa homodimer (NR concentration 90 nM); item: GCTAGCAGGCCATTTGGGTCACTCATTGACGGGC
Solution: 0.799

* * *

test system: PPARg:RXRa 90nM:30nM, anti-RXR (NR concentration 90 nM, RXRa partner concentration 30 nM); assay: PBM binding z-score (relative to random genomic background probes); higher = stronger binding; sequences stand for … in GC…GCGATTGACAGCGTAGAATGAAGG
Decision: PBM binding z-score >= 3 yields met, all other cases yield not met.

Solved cases (4 shown):
biopolymer-sequence | target-desc | assigned-category
CCCGCTAGGTCAATGGTCAGCTAAAGCAGCTCGC | PPARg:RXRa 90nM:30nM, anti-RXR (NR concentration 90 nM, RXRa partner concentration 30 nM) | met
CCTGCTAGGACATGGTCAGCTAATCTACAGTATG | PPARg:RXRa 90nM:30nM, anti-RXR (NR concentration 90 nM, RXRa partner concentration 30 nM) | not met
ATCTCTGGGTAACAAGTTCAGTGAAAGAGAGGAC | PPARg:RXRa 90nM:30nM, anti-RXR (NR concentration 90 nM, RXRa partner concentration 30 nM) | not met
ATATGTAGGTTACATACGGGTCATTCAGGCTATG | PPARg:RXRa 90nM:30nM, anti-RXR (NR concentration 90 nM, RXRa partner concentration 30 nM) | met

Exercise: // inclusive: PBM binding z-score at least 3? input: GCATATAGGTAATACCAGGTGAAAGTCCGATTGT
Solution: not met

Exercise: // inclusive: PBM binding z-score at least 3? input: CAGCCTAGGTCAGGGCCAGTAGAGGAGGAACGTT
Solution: not met

* * *

system: LXRa:RXRa (NR concentration 270 nM, RXRa partner concentration 90 nM); experiment: PBM binding z-score (relative to random genomic background probes); higher = stronger binding; sequences stand for … in GC…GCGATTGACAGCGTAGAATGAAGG
Listed here: items and their measured PBM binding z-score.
The reply should be a number, written without any unit.

Field: example entries. Status: answers known.
biopolymer-sequence | PBM binding z-score
CGTCCAAGGTCATAGGTCAGTGAAGAGATGACGG | 5.78
TGTCAAAGTTCAATGGTAACGTAAGTATCCACAC | 5.16
TCGAGTACGTTAGTCGGGGCATTCAGCCAACATA | -0.474
CCTACTGGGCCACGAAAGGTCACTGATTCAGTGA | 4.41
ATCTCTAGGTGAAGTTCAGTGAAAGATCGATAGA | 0.465
GCTAGCAGGCCATTTAGGTCACTCAATGACGGGC | -0.00867
CCTAGTTGGTCAGTAGGTCACACACCGGATATGA | 1.75
TCTAGTAGGTTAGTCGGGGCATTCAGCCAACATA | 0.731
TCTATTAGTTGATTAGGGTAACCGAAACAGCGGA | 0.884
GGAACGAGGGCATTCGAGTTGATAGCCTGGCGAT | 1.66

Exercise: # lookup: PBM binding z-score of ATATGTAGGTTTTCGGGTCATTCAGTTTGCGCAT
Solution: 2.94

Exercise: # lookup: PBM binding z-score of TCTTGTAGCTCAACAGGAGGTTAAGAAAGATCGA
Solution: 0.472

* * *

Listed here: items and their measured PBM binding z-score.
test system: PPARg homodimer (NR concentration 180 nM); experiment: PBM binding z-score (relative to random genomic background probes); higher = stronger binding; sequences stand for … in GC…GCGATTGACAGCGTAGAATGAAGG
The reply should be a number, written without any unit.

biopolymer-sequence | readout-value
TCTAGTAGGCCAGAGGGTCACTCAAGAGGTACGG | 0.62
CGAACTAGGTCTAGGACAGTGAATCTCCGCACGC | -0.583
CCTTACCGGTCACGAGGTTATAGCACGACGAGCG | 2.18
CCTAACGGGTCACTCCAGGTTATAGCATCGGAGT | 1.23
TCTATTAGTTGAAGGGCGACCGACGAGTCCGTTT | 0.852
GGAACGAGGGCATTCGAGTTGATAGGATGGCGAT | 0.00316
CACGAAAGGTCGGTTGAGGTGAGTATACGGATAA | 1.22
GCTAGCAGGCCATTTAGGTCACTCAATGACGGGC | -0.0591

Exercise: Query the reported PBM binding z-score for PPARg homodimer (NR concentration 180 nM); item: ATCTCTAGGAAACCAAGTTCAGTGAATGCCGAAC
Solution: 0.854

Exercise: Query the reported PBM binding z-score for PPARg homodimer (NR concentration 180 nM); item: CAGCCTAGGTCAGGGCCAGTATAGGAGGAACGTT
Solution: 1.03

Exercise: Query the reported PBM binding z-score for PPARg homodimer (NR concentration 180 nM); item: ATCTCTAGGTAAAGATATTTCAGTGAATGCAAAT
Solution: 0.424

Exercise: Query the reported PBM binding z-score for PPARg homodimer (NR concentration 180 nM); item: CGAACCAGGTCAGAACAGGACAGTGAAGGATGAT
Solution: 1.16

Exercise: Query the reported PBM binding z-score for PPARg homodimer (NR concentration 180 nM); item: AGAATGAGGTTATTAAGATTAGGGAATTGCGGTC
Solution: 1.01

* * *

tested on: LXRa:RXRa (NR concentration 270 nM, RXRa partner concentration 90 nM); assay: PBM binding z-score (relative to random genomic background probes); higher = stronger binding; sequences stand for … in GC…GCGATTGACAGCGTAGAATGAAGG
Listed here: items and their measured PBM binding z-score.

Field: example entries. Status: answers known.
biopolymer-sequence | PBM binding z-score
CGAACTAGGTCATCCCGGACAGTGAATACATTGA | 2.56
AGTCAAAGTGCAGGACGAGGTAACGTAAAGCACG | -0.155
ACTATTAGTTCACTTAGGGCAACCGATACGACGC | 0.968
CGAACTAGGCCAAGGACAGTGAATCTCCGCACGC | -0.713
AGAACGAGGGCACGCCGAGTTGATAGCAGAGTAG | 0.551

Exercise: # lookup: PBM binding z-score of TCTTGTAGATCAATACAGGTTAAGAAAGTGCGCT
Solution: 2.01

Exercise: # lookup: PBM binding z-score of TTACCAAGGTGGAAGGTCGTTGATGCACGCCTTG
Solution: 0.656

Exercise: # lookup: PBM binding z-score of AGAATGAGGTTATCCGTAGATCAGGGAAGAAAGT
Solution: 2.06

Exercise: # lookup: PBM binding z-score of CCTAGCAGGCCAAACTGGGTCACTCAAGGCTTGA
Solution: 0.962

Exercise: # lookup: PBM binding z-score of CCAGACAGGCGAGAAGGTAACTCAGCCTCGATTA
Solution: -0.595

Exercise: # lookup: PBM binding z-score of CGCCCAAGGTCAAAGGTCAGTGAAGAGATGACGG
Solution: 6.57

Exercise: # lookup: PBM binding z-score of AGAATGAGGTTATACGTAGATCAGAGAAGAAAGT
Solution: 1.86
